target under test: T1, EsCas13d, nuclease-dead (Eubacterium siraeum, UniProt B0MS50, R295A;H300A;R849A;H854A)
T1 sequence: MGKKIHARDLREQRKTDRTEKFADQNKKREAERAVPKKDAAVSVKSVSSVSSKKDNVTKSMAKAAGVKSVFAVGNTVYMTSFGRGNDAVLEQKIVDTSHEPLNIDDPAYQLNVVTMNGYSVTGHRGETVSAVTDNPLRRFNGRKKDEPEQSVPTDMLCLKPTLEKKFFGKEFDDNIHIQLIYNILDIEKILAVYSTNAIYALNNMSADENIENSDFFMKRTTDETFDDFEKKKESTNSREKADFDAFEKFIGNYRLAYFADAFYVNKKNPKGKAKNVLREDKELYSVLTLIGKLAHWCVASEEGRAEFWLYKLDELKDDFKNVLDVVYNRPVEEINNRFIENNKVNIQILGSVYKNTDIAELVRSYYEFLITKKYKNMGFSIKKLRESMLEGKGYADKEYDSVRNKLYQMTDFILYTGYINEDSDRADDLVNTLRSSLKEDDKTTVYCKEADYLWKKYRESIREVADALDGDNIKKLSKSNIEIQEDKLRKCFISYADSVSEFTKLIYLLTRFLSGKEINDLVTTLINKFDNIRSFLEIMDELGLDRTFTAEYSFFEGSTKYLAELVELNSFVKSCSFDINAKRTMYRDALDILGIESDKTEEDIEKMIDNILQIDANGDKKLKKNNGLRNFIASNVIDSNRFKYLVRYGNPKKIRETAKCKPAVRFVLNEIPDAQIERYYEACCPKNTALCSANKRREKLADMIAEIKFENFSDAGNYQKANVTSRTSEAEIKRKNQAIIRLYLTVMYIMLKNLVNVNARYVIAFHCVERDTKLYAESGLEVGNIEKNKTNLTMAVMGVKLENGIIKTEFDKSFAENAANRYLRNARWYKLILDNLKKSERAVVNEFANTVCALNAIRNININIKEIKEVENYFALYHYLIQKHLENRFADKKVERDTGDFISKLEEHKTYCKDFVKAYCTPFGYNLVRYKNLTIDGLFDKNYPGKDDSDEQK
assay procedure: crRNA (strand 1, pre-loaded); Mg2+; 40 mM Tris-HCl pH 7.5, 150 mM NaCl, 6 mM MgCl2, 1 mM DTT, 0.1% Tween-20, 0.2 mg/ml BSA; 25 C; 10 min per concentration, then washed
assay setup: tags: His6-TwinStrep-SUMO cleaved; N-terminal SNAP kept (SNAP-Surface 488); label: 3' end held by stalled T7 RNA polymerase
Quick reference: pKd of the listed items.
Please report pKd as the negative decimal logarithm of the molar concentration, giving only the number.

binder	result
target 1 U10G,A16C (mixed) RNA 1: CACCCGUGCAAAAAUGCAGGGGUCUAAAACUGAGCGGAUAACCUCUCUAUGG RNA 2: GGGAAUGGAUCCACAUCUACGAAUUCGUACCAUAGCGAGGUGAUCCGCUCACCGAGAUCGGAAGAGCACACGU	7.24

Please examine the following record next.
Which pKd reading was recorded for the binder target 3 insC 3' of 19,insU 3' of 5 (mixed) RNA 1: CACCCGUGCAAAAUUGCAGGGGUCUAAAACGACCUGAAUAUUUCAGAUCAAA RNA 2: GGGAAUGGAUCCACAUCUACGAAUUCGUUUUUGCAUCUGAAAUAUUCAUGGUCUGCAGAUCGGAAGAGCACACGU ?
6.89
